Target: human GLUT2 (Homo sapiens, UniProt P11168)
Construct: expressed in transfected cells
Sequence (P11168 1-524): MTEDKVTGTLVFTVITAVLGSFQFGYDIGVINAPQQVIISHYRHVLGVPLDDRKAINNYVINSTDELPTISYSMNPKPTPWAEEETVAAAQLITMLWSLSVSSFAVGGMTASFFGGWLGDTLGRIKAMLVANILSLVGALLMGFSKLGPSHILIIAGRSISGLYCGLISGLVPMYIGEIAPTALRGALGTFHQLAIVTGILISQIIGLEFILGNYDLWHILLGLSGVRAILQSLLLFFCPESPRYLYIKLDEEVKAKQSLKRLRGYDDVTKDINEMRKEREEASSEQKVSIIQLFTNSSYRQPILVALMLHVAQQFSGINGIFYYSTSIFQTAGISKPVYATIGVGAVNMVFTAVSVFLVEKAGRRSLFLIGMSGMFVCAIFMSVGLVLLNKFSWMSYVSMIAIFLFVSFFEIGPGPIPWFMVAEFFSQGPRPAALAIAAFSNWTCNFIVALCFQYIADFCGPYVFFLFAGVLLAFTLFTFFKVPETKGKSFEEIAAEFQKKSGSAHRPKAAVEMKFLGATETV
Test: [3H]-deoxy-D-glucose uptake assay, GLUT2
Assay type: cell-based
Details: [3H]-deoxy-D-glucose uptake in HEK293 cells stably expressing human GLUT2
Procedure: HEK293 cells were engineered to stably express either human GLUT1, GLUT2, GLUt3 or GLUT4 by transfection with the pReceiver-Lv105 plasmid, containing either hGLUT1, hGLUT2, hGLUT3, or hGLUT4 gene constructs with lipofectamine 2000, hGLUT1- hGLUT2- hGLUT3- or hGLUT4-overexpressing polyclonal populations were isolated under purinomycin selective pressure (1 μg/ml) and maintained in Dulbecco's modified Eagle's medium supplemented with 1 μg/ml purinomycin+10% foetal bovine serum (FBS). […]
endpoint-label: GLUT2 pIC50

molecule_smiles=COCC(=O)N1CCN(Cc2c(-c3ccc(Cl)cc3Cl)nc3ccc(-c4ncon4)cn23)CC1 result="++ (pIC50 5.00-5.99)"
molecule_smiles=COCC(=O)N1CCN(Cc2c(-c3ccc(Cl)cc3Cl)nc3ccc(NS(C)(=O)=O)cn23)CC1 result="++ (pIC50 5.00-5.99)"
molecule_smiles=O=C1CN(Cc2c(-c3ccc(Cl)cc3Cl)nc3cnc(C4CC4)cn23)CCN1 result="+++ (pIC50 ≧ 6.00)"
molecule_smiles=CN(c1ccc2nc(-c3ccc(Cl)cc3Cl)c(CN3CCN(C(=O)c4ccnnc4)CC3)n2c1)S(C)(=O)=O result="+++ (pIC50 ≧ 6.00)"
